Test: Displacement of [3H]flumazenil from CBR at low affinity site extracted from cerebral cortex of CD-1 albino mouse incubated for 90 mins by liquid scintillation counter analysis
Assay type: tissue-based
So I've got a bunch of compounds here, and I need their pKi values.
Please report pKi as the negative decimal logarithm of the molar concentration, giving only the number.

Could you share which pKi value was measured for "CN1C(=O)CN=C(c2ccccc2)c2cc(Cl)ccc21" ?
8.46

Could you share which pKi value was measured for "CCOC(=O)c1ncn2c1CN(C)C(=O)c1cc(F)ccc1-2" ?
8.89

Could you share which pKi value was measured for "CCOC(=O)c1ncn2c1c(C)c(C(=O)NCCCCCCCCNC(=O)OC(C)(C)C)c1ccccc12" ?
7.29

Could you share which pKi value was measured for "CCOC(=O)c1ncn2c1c(C)c(C(=O)NCCCCCCCCNC(=O)c1c(C)c3c(C(=O)OCC)ncn3c3ccccc13)c1ccccc12" ?
7.28

Could you share which pKi value was measured for "CCOC(=O)c1ncn2c1c(C)c(C(=O)NCCCCCCNC(=O)c1c(C)c3c(C(=O)OCC)ncn3c3ccccc13)c1ccccc12" ?
7.22

Could you share which pKi value was measured for "CCOC(=O)c1ncn2c1c(C)c(C(=O)NCCCCCCCNC(=O)OC(C)(C)C)c1ccccc12" ?
8.19

Could you share which pKi value was measured for "CCOC(=O)c1ncn2c1c(C)c(C(=O)NCCCCCCNC(=O)OC(C)(C)C)c1ccccc12" ?
7.46

Could you share which pKi value was measured for "CCOC(=O)c1ncn2c1c(C)c(C(=O)NCCCCCCCNC(=O)c1c(C)c3c(C(=O)OCC)ncn3c3ccccc13)c1ccccc12" ?
7.92

###

So I've got a bunch of molecules here, and I need their pKi values.
Assay: Displacement of [3H]flumazenil from CBR extracted from cerebral cortex of CD-1 albino mouse incubated for 90 mins by liquid scintillation counter analysis
Type: cell membranes, Membranes
Please report pKi as the negative decimal logarithm of the molar concentration, giving only the number.

Could you share which pKi value was measured for "CCOC(=O)c1ncn2c1c(C)c(C(=O)NCCOCCOCCNC(=O)c1c(C)c3c(C(=O)OCC)ncn3c3ccccc13)c1ccccc12" ?
7.74

Could you share which pKi value was measured for "CCOC(=O)c1ncn2c1c(C)c(C(=O)NCCOCCOCCNC(=O)OC(C)(C)C)c1ccccc12" ?
7.92

Could you share which pKi value was measured for "CCOC(=O)c1ncn2c1c(C)c(C(=O)NCCOCCOCCOCCOCCOCCOCCOCCNC(=O)OC(C)(C)C)c1ccccc12" ?
9.18

Could you share which pKi value was measured for "CCOC(=O)c1ncn2c1c(C)c(C(=O)NCCOCCOCCOCCOCCOCCOCCOCCNC(=O)c1c(C)c3c(C(=O)OCC)ncn3c3ccccc13)c1ccccc12" ?
7.39

###

Assay: Displacement of [3H]flumazenil from CBR at high affinity site extracted from cerebral cortex of CD-1 albino mouse incubated for 90 mins by liquid scintillation counter analysis
Format: tissue-based
outcome measure: Ki (nM)
# unit: nM | format: bare number

Could you share which Ki value was measured for "CCOC(=O)c1ncn2c1c(C)c(C(=O)NCCCCCCCNC(=O)OC(C)(C)C)c1ccccc12" ?
61

Could you share which Ki value was measured for "CCOC(=O)c1ncn2c1c(C)c(C(=O)NCCCCCCNC(=O)c1c(C)c3c(C(=O)OCC)ncn3c3ccccc13)c1ccccc12" ?
0.022

Could you share which Ki value was measured for "CCOC(=O)c1ncn2c1c(C)c(C(=O)NCCCCCCNC(=O)OC(C)(C)C)c1ccccc12" ?
65

Could you share which Ki value was measured for "CCOC(=O)c1ncn2c1c(C)c(C(=O)NCCCCCCCNC(=O)c1c(C)c3c(C(=O)OCC)ncn3c3ccccc13)c1ccccc12" ?
0.001

Could you share which Ki value was measured for "CCOC(=O)c1ncn2c1c(C)c(C(=O)NCCCCCCCCNC(=O)OC(C)(C)C)c1ccccc12" ?
0.005

Could you share which Ki value was measured for "CCOC(=O)c1ncn2c1c(C)c(C(=O)NCCCCCCCCNC(=O)c1c(C)c3c(C(=O)OCC)ncn3c3ccccc13)c1ccccc12" ?
0.05
